# subject_of_test: catalytic domain of phosphodiesterase 4B enzyme cloned from human brain (Homo sapiens)
# Construct: the catalytic domain of phosphodiesterase 4B enzyme; purchased Scottish Biomedical
# Sequence (Q07343 330-659 limits assumed): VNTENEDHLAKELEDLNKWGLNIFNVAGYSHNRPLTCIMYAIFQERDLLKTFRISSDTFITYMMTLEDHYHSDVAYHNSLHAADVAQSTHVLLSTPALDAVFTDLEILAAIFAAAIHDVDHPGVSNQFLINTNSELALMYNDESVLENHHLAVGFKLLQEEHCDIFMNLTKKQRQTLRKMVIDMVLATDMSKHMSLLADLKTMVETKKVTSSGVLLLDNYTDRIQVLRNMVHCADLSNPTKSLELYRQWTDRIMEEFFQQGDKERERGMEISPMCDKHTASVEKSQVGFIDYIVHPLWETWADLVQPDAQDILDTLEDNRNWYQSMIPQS
# protocol_description: PDE4 inhibition assay (PDELight)
# Format: biochemical
# assay_conditions: 5 uM cAMP; read-out: PDE 4 Inhibition (IC50 in μM)
property_measured: IC50 (µM)

{"compound_smiles": "CC(C)c1nn2ccccc2c1-c1ccnc(N(C)C)c1", "subject_of_test": "catalytic domain of phosphodiesterase 4B enzyme cloned from human brain (Homo sapiens)", "censoring_qualifier": "=", "experimental_value": 3.9}
{"compound_smiles": "CC(C)Nc1nccc(-c2c(C(C)C)nn3ccccc23)n1", "subject_of_test": "catalytic domain of phosphodiesterase 4B enzyme cloned from human brain (Homo sapiens)", "censoring_qualifier": "=", "experimental_value": 4.3}
{"compound_smiles": "CC(C)Nc1nccc(-c2c(-c3cccc(F)c3)nn3ccccc23)n1", "subject_of_test": "catalytic domain of phosphodiesterase 4B enzyme cloned from human brain (Homo sapiens)", "censoring_qualifier": ">", "experimental_value": 100}
{"compound_smiles": "CC(C)Nc1nccc(-c2cccc3cc(C(C)C)nn23)n1", "subject_of_test": "catalytic domain of phosphodiesterase 4B enzyme cloned from human brain (Homo sapiens)", "censoring_qualifier": "=", "experimental_value": 57}
{"compound_smiles": "COCc1nn2ccccc2c1-c1ccnc(NC(C)C)n1", "subject_of_test": "catalytic domain of phosphodiesterase 4B enzyme cloned from human brain (Homo sapiens)", "censoring_qualifier": "=", "experimental_value": 8.6}
{"compound_smiles": "CC(C)Nc1nccc(-c2c(-c3ccccc3)nn3ccccc23)n1", "subject_of_test": "catalytic domain of phosphodiesterase 4B enzyme cloned from human brain (Homo sapiens)", "censoring_qualifier": "=", "experimental_value": 3.8}
{"compound_smiles": "CC(C)Nc1cc(-c2c(C(C)C)nn3ccccc23)ccn1", "subject_of_test": "catalytic domain of phosphodiesterase 4B enzyme cloned from human brain (Homo sapiens)", "censoring_qualifier": ">", "experimental_value": 100}
{"compound_smiles": "CC(C)c1nn2ccccc2c1-c1cnc(NC2CCCC2)nc1", "subject_of_test": "catalytic domain of phosphodiesterase 4B enzyme cloned from human brain (Homo sapiens)", "censoring_qualifier": "=", "experimental_value": 24}
{"compound_smiles": "CC(C)Nc1nccc(-c2c(C3CC3)nn3ccccc23)n1", "subject_of_test": "catalytic domain of phosphodiesterase 4B enzyme cloned from human brain (Homo sapiens)", "censoring_qualifier": "=", "experimental_value": 1.1}
{"compound_smiles": "CC(C)c1nn2ccccc2c1-c1ccnc(N)n1", "subject_of_test": "catalytic domain of phosphodiesterase 4B enzyme cloned from human brain (Homo sapiens)", "censoring_qualifier": ">", "experimental_value": 100}

Values compiled from patent US20110039873A1.
